# System: MS2 coat protein
# Assay Info: apparent KD of MS2 coat protein; designed switch direction (-1 OFF switch, 1 ON switch): -1; higher = weaker reporter binding
# Recorded Conditions: Eterna round: R95; input ligand: none

| Chain | apparent KD of MS2 coat protein (µM) |
| --- | --- |
| ACAAGCUUUUUGCUCGUCUACAUGAGGAUCACCCAUGUAGUGAGAUAGUGGUGAAGAUAGAAUGAGCGUAGUAGGUA [JR_SV3TOV1_Sub070] (puzzle: Sensor v3, turn-off variant 1) | 0.0102 |
| CGUACUGAAGUGAGGAUAUUGUCUCGGAUACGAAACAAGAAGGCACAUGAGGAUCACCCAUGUUAACAGUACGA [Malc #30 mod 9] (puzzle: Brourd's mod of Exclusion 4) | 0.0145 |
| UUUUACUCAGGAUAUAUGAUGUGAAACAUGAGGAUCACCCAUGUAAUAUUAUGGAUGUAAAUAGAAGGGAGAUUUU [Mat - Exclusion 5 - JL mod - D17] (puzzle: Exclusion 5) | 0.0784 |
| UAUUAACAAGCAAGGUCCCACAUGAGGAUCACCCAUGUGCUCGUCUUAUAAGGUACUGUGACGAAAGUCACGGUACC [Sensor 3, v1 - 81] (puzzle: Sensor v3, turn-off variant 1) | 0.0336 |
| UCCUUACAUGAGGAUCACCCAUGUCAGGAUAUCUCCUCACUGCGCUUGCGCAGUGGAUAGAGAAGGGACGGGCU [JL ViennaUCT Aner mod 9] (puzzle: Exclusion 1) | 0.0328 |
| GAGUGACAUGAGGAUCACCCAUGUAAGGAUAUACGGUUGGUAGAGAGAGGGAAAAGAGGUAGAAGGUACGAAGG [JR_Exclu1_Sub056] (puzzle: Exclusion 1) | 0.0762 |
| CUAGUCCGAGGAUAUAUUAAGUGAAACAUGAGGAUCACCCAUGUUAUUUGAUGGAUGAAAAUAGAAGGCGGACUAG [Mat - Exclusion 5 - JL mod - D60] (puzzle: Exclusion 5) | 0.0585 |
| GAGAACGUAGGAUAUACAUGAGGAUCACCCAUGUGAGGAAGGAGUAGGAAGCGUGGAAGUAGAAGGACGGAGAG [JR_Exclu3_Sub073] (puzzle: Exclusion 3) | 0.0245 |
| CCAUCGAGUGUGAGGAUAUGCUGGUCCAUAGAUCAGCAGAAGGCACAUGAGGAUCACCCAUGUGGAGACGGUGG [Mat - Exclusion 4 - JL Mod - D78] (puzzle: Brourd's mod of Exclusion 4) | 0.0366 |
| GGGAAACAUGAGGAUCACCCAUGUAAGGAUAUGCAAAAGGAUAUAGAAGGAAAAAAAAGCAGAAGGUACAAAGG [salish99-ex1_r3_100] (puzzle: Exclusion 1) | 0.0573 |
